# SYSTEM_TESTED: T1, Human chemokine receptor CXCR4 (human, UniProt P61073 1-352)
# T1 construct: whole, on cells; Used as membranes (0.5 ug membrane protein) of Chem-1 cells that express the receptor; also called C-X-C chemokine receptor type 4; fusin
# ASSAY_TEXT: competition with [125I]SDF-1α, human CXCR4 membranes (Chem-1 cells)
Bridge positions count the residues as written; N and C are the ends. Square brackets hold non-standard residues; d marks the D form. * marks the point of attachment. 2Nal = N[C@@H](Cc1ccc2ccccc2c1)C(=O)O; Palmitoyl = CCCCCCCCCCCCCCCC(=O)*; Lauroyl = CCCCCCCCCCCC(=O)*; Mpa = O=C(O)CCS; iPr = CC(C)*
Define the label as 1 when Binding Kb is strictly less than 0.3 nM and as -1 in all remaining cases.

Example entries begin here.
[Mpa]YK(iPr)[dR][2Nal]GC[dR]G[dF]G-NH2 (disulfide 1-7; also: acetate salt, Synthetic cyclic peptide, acetate salt; also called MLB-004) [Cyclo[Mpa-Tyr-Lys(iPr)-(D-Arg)-2Nal-Gly-Cys]-(D-Arg)-Gly-(D-Phe)-Gly-NH2] ... 1
[Mpa]YK(iPr)[dR][2Nal]GCRG[dF]G-NH2 (disulfide 1-7; also: acetate salt, Synthetic cyclic peptide, acetate salt; also called MLB-002) [Cyclo[Mpa-Tyr-Lys(iPr)-(D-Arg)-2Nal-Gly-Cys]-Arg-Gly-(D-Phe)-Gly-NH2] ... 1
[Mpa]YK(iPr)[dR][2Nal]GCK(iPr)G[2Nal]G-NH2 (disulfide 1-7; also: acetate salt, Synthetic cyclic peptide, acetate salt; also called MLB-008) [Cyclo[Mpa-Tyr-Lys(iPr)-(D-Arg)-2Nal-Gly-Cys]-Lys(iPr)-Gly-2Nal-Gly-NH2] ... 1

[in] Threshold test, Binding Kb < 0.3 nM: [Mpa]YK(iPr)[dR][2Nal]GCK(iPr)K(Lauroyl)-NHEt (disulfide 1-7; also: acetate salt, Synthetic cyclic peptide, acetate salt; also called MLB-028) [Cyclo[Mpa-Tyr-Lys(iPr)-(D-Arg)-2Nal-Gly-Cys]-Lys(iPr)-Lys(lauroyl)-NH(Et)]
[out] -1

[in] Threshold test, Binding Kb < 0.3 nM: [Mpa]YR[dR][2Nal]GCRG[dF]G-NH2 (disulfide 1-7; also: acetate salt, Synthetic cyclic peptide, acetate salt; also called MLB-001) [Cyclo[Mpa-Tyr-Arg-(D-Arg)-2Nal-Gly-Cys]-Arg-Gly-(D-Phe)-Gly-NH2]
[out] -1

[in] Threshold test, Binding Kb < 0.3 nM: [Mpa]YK(iPr)[dR][2Nal]GCK(iPr)K(Palmitoyl)-NHEt (disulfide 1-7; also: acetate salt, Synthetic cyclic peptide, acetate salt; also called MLB-029) [Cyclo[Mpa-Tyr-Lys(iPr)-(D-Arg)-2Nal-Gly-Cys]-Lys(iPr)-Lys(palmitoyl)-NH(Et)]
[out] -1
